# target of assay: cloned muscarinic - M2 binding site (Homo sapiens, UniProt P08172)
# Construct: expressed in transfected cells; host or cells: CHO cells
# Sequence (P08172 whole entry): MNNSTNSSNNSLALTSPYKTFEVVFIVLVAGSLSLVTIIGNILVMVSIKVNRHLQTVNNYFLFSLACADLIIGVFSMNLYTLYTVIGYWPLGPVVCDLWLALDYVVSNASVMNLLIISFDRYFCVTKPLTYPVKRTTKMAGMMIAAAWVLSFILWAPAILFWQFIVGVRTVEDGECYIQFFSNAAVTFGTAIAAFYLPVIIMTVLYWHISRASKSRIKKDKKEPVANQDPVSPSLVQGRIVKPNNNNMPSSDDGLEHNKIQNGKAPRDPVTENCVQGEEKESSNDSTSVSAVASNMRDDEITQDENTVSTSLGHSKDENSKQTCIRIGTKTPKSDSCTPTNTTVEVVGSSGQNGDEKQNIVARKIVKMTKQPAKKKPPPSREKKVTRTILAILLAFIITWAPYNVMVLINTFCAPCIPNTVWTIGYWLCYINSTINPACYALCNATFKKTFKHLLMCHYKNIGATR
# assay: Muscarinic M2 binding assay, [3H]-Scopolamine N-Methyl Chloride, human recombinant expressed in CHO cells
# experimental conditions: Series 11 compounds, Table 5; unit inferred; receptor source not given; read-out: M2 Ki
# key: entry, value: Ki
Enter your answer as a number in nM; do not include the unit.

molecule="O=C(CCN1CCC(=C(c2ccccc2)c2ccccc2)CC1)OC1CCOCC1 [Compound 11i]" reported=72
molecule="O=C(CCN1CCC(=C(c2ccccc2)c2ccccc2)CC1)OC1CCOC1 (centres unmarked) [Compound 11h]" reported=697
molecule="CC(C)OC(=O)CCN1CCC(=C(c2ccccc2)c2ccccc2)CC1 [Compound 11d]" reported=270

Next, consider the following molecule.
For CC(C)COC(=O)CCN1CCC(=C(c2ccccc2)c2ccccc2)CC1 [Compound 11e] the molecule record lists Ki as 1150
